Measured values drawn from patent US12612407B2 for this set.

study target: human TLR7 (Homo sapiens, UniProt Q9NYK1)
Construct: host or cells: HEK293 (HEK-Blue hTLR7)
Sequence (Q9NYK1 27-1049): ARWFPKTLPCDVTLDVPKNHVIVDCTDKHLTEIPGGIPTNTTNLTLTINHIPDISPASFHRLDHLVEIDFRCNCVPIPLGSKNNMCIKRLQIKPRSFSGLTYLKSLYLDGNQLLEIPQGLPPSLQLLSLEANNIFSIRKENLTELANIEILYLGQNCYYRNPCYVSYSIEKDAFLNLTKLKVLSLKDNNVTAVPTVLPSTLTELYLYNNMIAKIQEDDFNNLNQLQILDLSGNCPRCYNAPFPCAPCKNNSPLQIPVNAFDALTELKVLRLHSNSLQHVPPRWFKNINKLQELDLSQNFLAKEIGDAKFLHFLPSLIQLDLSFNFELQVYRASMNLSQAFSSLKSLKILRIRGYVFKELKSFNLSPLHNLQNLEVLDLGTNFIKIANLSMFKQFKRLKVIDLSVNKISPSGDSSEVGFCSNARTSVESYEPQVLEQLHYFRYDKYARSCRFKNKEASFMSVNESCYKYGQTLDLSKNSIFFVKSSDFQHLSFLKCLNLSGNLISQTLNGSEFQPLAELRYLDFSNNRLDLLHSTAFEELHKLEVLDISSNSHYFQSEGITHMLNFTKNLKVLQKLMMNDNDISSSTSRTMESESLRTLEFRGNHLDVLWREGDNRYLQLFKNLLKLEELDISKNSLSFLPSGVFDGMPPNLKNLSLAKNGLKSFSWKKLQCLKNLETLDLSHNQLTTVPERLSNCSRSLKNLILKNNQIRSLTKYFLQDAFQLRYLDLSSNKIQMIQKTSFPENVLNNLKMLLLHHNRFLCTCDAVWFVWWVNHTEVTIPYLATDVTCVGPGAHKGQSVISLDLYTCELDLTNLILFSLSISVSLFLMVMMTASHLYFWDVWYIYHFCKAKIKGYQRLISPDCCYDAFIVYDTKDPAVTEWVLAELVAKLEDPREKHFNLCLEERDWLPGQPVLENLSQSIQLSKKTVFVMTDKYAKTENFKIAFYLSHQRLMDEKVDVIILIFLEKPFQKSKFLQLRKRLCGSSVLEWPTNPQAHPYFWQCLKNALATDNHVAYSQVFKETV
assay text: HEK293-Blue hTLR7 Reporter Assay (QUANTI-BLUE, SEAP readout)
Format: cell-based
measurement conditions: HEK-Blue-hTLR7 cells, 24 hrs treatment, Table 1, B1-B232
readout label: EC50 (nM)

A = CCCCOc1nc(N)c2ncc(Cc3ccc(C4CCNCC4)nc3F)n2n1 [Compound B21]
B = CCC[C@H](C)Oc1nc(N)c2ncc(Cc3cnc(N4CCC(N(C)C)CC4)c(C)c3)n2n1 [Compound B122]
C = CCCCOc1nc(N)c2ncc(Cc3cnc(N4CCC(CNC)CC4)c(C)c3)n2n1 [Compound B106]
(Q) List the items above again, this time ordered by increasing EC50. Write the labels in rank order as requested.
(A) B, C, A

P = C=CCCOc1nc(N)c2ncc(Cc3cnc(N4CCNCC4)c(C)c3)n2n1 [Compound B80]
Q = CCCCNc1nc(N)c2ncc(Cc3cnc(N4CCC(N(C)C)CC4)c(C)c3)n2n1 [Compound B135]
(Q) // which entry reports the smaller EC50, P or Q ? Kindly give the label for the entry you pick.
(A) Q

1 = CCCCOc1nc(N)c2ncc(Cc3cnc(N4C[C@@H]5C[C@H]4CN5)c(C)c3)n2n1 [Compound B168]
2 = Cc1cc(Cc2cnc3c(N)nc(OCC4CCCCC4)nn23)cnc1N1CCNCC1 [Compound B192]
(Q) Just curious, which one has the larger EC50 reading, 1 or 2 ? Kindly give the label for the entry you pick.
(A) 2
(2: 2680 nM, 1: 124 nM)
